- Study target: Short transient receptor potential channel 4 (Mus musculus) (UniProt Q9QUQ5)
- Sequence (Q9QUQ5 whole entry, looked up): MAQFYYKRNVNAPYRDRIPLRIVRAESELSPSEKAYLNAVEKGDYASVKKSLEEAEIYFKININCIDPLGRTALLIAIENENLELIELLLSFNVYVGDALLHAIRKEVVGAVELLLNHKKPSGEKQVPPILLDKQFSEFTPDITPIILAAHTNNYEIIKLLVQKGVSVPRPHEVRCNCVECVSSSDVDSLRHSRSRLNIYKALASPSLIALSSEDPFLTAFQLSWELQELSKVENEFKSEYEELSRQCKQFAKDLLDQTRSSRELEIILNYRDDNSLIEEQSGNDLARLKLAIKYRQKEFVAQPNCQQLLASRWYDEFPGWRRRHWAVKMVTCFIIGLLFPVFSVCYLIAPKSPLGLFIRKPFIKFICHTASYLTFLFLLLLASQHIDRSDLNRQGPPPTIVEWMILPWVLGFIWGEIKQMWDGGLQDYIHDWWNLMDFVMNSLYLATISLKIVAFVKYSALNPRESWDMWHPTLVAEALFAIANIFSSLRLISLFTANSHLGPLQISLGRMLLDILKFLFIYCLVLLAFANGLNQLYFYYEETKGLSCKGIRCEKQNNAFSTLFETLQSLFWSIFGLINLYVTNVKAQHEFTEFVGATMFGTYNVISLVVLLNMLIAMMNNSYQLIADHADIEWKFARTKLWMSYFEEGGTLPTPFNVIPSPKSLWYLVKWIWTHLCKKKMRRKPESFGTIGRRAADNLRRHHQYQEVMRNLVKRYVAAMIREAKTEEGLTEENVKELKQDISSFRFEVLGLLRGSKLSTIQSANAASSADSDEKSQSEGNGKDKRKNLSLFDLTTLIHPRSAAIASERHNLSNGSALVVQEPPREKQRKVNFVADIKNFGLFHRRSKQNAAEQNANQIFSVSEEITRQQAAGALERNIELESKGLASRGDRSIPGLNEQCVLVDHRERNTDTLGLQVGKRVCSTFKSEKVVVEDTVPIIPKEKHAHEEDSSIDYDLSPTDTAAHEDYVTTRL
- Test protocol: inhibitors of mouse TRPC4 channel, confirmation, cell-based, Fluo4, HEK293 TRPC4beta/mu-opioid (AID 2636)
- Measurement context: DAMGO, Fluo4 calcium flux, at 10 µM
Activity calls are given as the source filed them.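 The calls were made as follows: active = calcium signal cut by more than 3 SD below the full-agonist control yet still positive, in both repeats and the earlier primary screen; inactive = the rest.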
Mark one answer only. Choices: True for active, False for inactive

Ask: Could you please tell me the result logged for `CCOC(=O)c1cc(C)n(CCc2cnc[nH]2)c1C` in this assay?
Result: False

Ask: Another compound to check: `FC(F)(F)c1ccc(CN2CCNCC2)cc1`
Result: False

Ask: Similarly, Cc1ccc(CN2C3CCCC2CC(NC(=S)NCc2ccccc2)C3)cc1 (configuration not stated) ?
Result: True

Ask: Now give it for COC(=O)C(O)(c1ccc(NC(=S)NC(=O)c2ccc(Cl)cc2Cl)c(C)c1)C(F)(F)F (configuration not stated) too.
Result: False

Ask: Entry `CCc1ccc(OCCCN=C(C)c2c(O)n(C)c(=O)n(C)c2=O)cc1` please
Result: False

Ask: Please give the result for `Nc1c([N+](=O)[O-])cc(F)c(N2CCNCC2)c1Br` too.
Result: False

Ask: Now consider `Cc1c(P(=S)(c2ccccc2)c2ccccc2)[n+]2ccccc2n1C` .
Result: False

Ask: # iterate: `Cc1ccc(NC(=S)NCCc2cnc[nH]2)cc1C`
Result: False

Ask: How about this compound: `COc1ccc(CNCCc2c[nH]c3ccccc23)cc1OC`
Result: False

Ask: And the next one, `CCOC(=O)C1(CCc2ccccc2)CCN(Cc2ccc(NC(C)=O)cc2)CC1` ?
Result: False

Ask: Same for Cc1ccsc1C(=O)C1CCCN(Cc2ccccc2O)C1 (configuration not stated)
Result: True

Ask: Next entry: `CN(C)C=C1C(=O)N(C2CCCCC2)C(=O)N(C2CCCCC2)C1=O`
Result: False

Ask: Moving on to the next compound: `CCNCCNc1ccc([N+](=O)[O-])c2cccnc12`
Result: False

Ask: Further, for `CC(C)CN(CC(C)C)c1ccc(C=C2C(=O)NC(=S)NC2=O)cc1[N+](=O)[O-]` ?
Result: True

Ask: Another compound to look at: `Clc1ccc(N2CCNCC2)nn1`
Result: False

Ask: What would you report for CCCCc1ncc(CN2CCCC(C(=O)c3ccc(SC)cc3)C2)[nH]1 (configuration not stated) ?
Result: True

Ask: // next record `O=C(CCCN1CCC2(CC1)C(=O)NCN2c1ccccc1)c1ccc(F)cc1`
Result: False

Ask: Moving on to the next compound: `COC(=O)C1=CCCN(C)C1`
Result: False

Ask: Param item: `CCN1CCN(c2cc(N3CCCC3)c([N+](=O)[O-])cc2F)CC1`
Result: False

Ask: Try this compound too: `CCOC(=O)C1(c2ccccc2)CCN(CC(=O)Nc2ccc(C)cc2)CC1`
Result: True

Ask: Next up: COc1ccc(C(CNC(=O)CCc2ccsc2)N(C)C)cc1 (configuration not stated)
Result: False

Ask: Next up: `CCC1=Nc2cc(C(=O)N3CCC4(CC3)OCCO4)ccc2Sc2ccc(C)cc21`
Result: True

Ask: Can you check `O=[N+]([O-])c1ccc(N2CCNCC2)c(Cl)c1` next?
Result: False

Ask: What about COc1cccc(O)c1CN1CCCC(C(=O)c2sccc2C)C1 (configuration not stated) ?
Result: True

Ask: Then `Nc1cc(N2CCNCC2)ccc1[N+](=O)[O-]` ?
Result: False

Ask: Now the compound CCC1(C)CC(CCNCc2ccc(N(C)C)cc2)(c2ccc(F)cc2)CCO1 (configuration not stated)
Result: False

Ask: Entry `CCOC(=O)C1(c2ccccc2)CCN(CCC(=O)Nc2ccccc2OC)CC1` please
Result: False

Ask: // query: c1ccc2sc(C3CCCNC3)nc2c1 (configuration not stated)
Result: False

Ask: // query: COc1ccc(C(=O)C2CCCN(C3CSCCSC3)C2)cc1OC (configuration not stated)
Result: False

Ask: Moving on to `CC(C)CNc1c2c(nc3ccccc13)CCC2`
Result: False

Ask: Input `CCNc1cc(N2CCNCC2)ccc1[N+](=O)[O-]`
Result: False

Ask: Similarly, CC1CN(c2ccc([N+](=O)[O-])c3cccnc23)CC(C)N1 (configuration not stated) ?
Result: False

Ask: Next compound up: CCN1CC2C3CCC(C)(O3)C2C1 (configuration not stated)
Result: False

Ask: Can you handle `Cc1cc(-c2ccccc2)cc(C)[n+]1Cc1ccccc1` next?
Result: False

Ask: And `O=C(Cc1ccccc1)N1CCN(Cc2cccc(Br)c2)CC1` ?
Result: True

Ask: Next compound: `CNCCc1nc(N)n[nH]1`
Result: False

Ask: Moving on to the next compound: O=C(c1cccc(C(F)(F)F)c1)C1CCCN(Cc2ccccc2O)C1 (configuration not stated)
Result: True

Ask: Next record, please: `COc1ccc2c(c1O)[C@]13CCN(C)[C@H](C2)[C@@H]1CCC(=O)C3`
Result: False

Ask: Then `Cn1cc[n+](C)c1P(=S)(c1ccccc1)c1ccccc1` ?
Result: False

Ask: Then CCCCN1C(=O)NC(=O)C2(Cc3c(nc4c(C)cccn4c3=O)N3CCc4ccccc4C32)C1=O (configuration not stated) ?
Result: False

Ask: Another compound to check: COc1ccc(C(CNC(=O)Cc2ccc(Cl)c(Cl)c2)N(C)C)cc1 (configuration not stated)
Result: False

Ask: Item: `O=C(CN1CCCC1)Nc1ccc(Cl)cc1C(=O)c1ccccc1`
Result: True
